In this section we review reported fold fluorescence values for a set of compounds.
method.description: inhibitors of Cryptococcus chitosan production, flow cytometry, Cibacron Brilliant Red staining (AID 1347148);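 further: compound exposure lasted three days at 37 degrees C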
condition.summary: Cryptococcus neoformans chitosan, stronger effect = lower value; at 10 µM unless noted
Active and inactive are the calls of the source. How the calls were made is not given here.

What value of fold fluorescence has been reported for the following compound? CCCC[C@H]1C(=O)O[C@H](C)[C@H](NC(=O)c2cccc(NC=O)c2OC)C(=O)O[C@@H](C)[C@@H]1OC(=O)CC(C)C
6.91 [at 93.5 µM] (inactive)

What value of fold fluorescence has been reported for the following compound? CCNC(=O)[C@@H]1O[C@H](n2cnc3c(N)ncnc32)C(O)[C@@H]1O (stereo partly drawn)
4.97 [at 162.2 µM] (inactive)

What value of fold fluorescence has been reported for the following compound? COc1ccc(C[C@H]2NC[C@H](O)[C@H]2OC(C)=O)cc1
11.2 [at 188.5 µM] (inactive)

What value of fold fluorescence has been reported for the following compound? CCCCCCCCCCCCCCCCOC[C@H](O)COP(=O)([O-])OCC[N+](C)(C)C
3.83 (inactive)

What value of fold fluorescence has been reported for the following compound? N#CC(C#N)=NNc1ccc(OC(F)(F)F)cc1
9.07 [at 196.7 µM] (inactive)

---

In this section we review reported inhibition values for a set of molecules.
test.system: L-lactate dehydrogenase (Plasmodium falciparum (isolate CDC / Honduras))
method.description: PfLDH activity inhibition – cell lysate, 3D7 strain, counter-screen for P. falciparum growth inhibition project (AID 2304);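 further: 0% = vehicle and 100% = reference inhibitor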
condition.summary: P. falciparum 3D7 crude extract, LDH APAD/NBT absorbance; at 2 µM; stronger effect = higher value
Field format: number, assumed %, no unit text.

Sample records with inhibition:
molecule | test.system | units.text | inhibition
CC[C@H]1CN2CC[C@@H]1C[C@H]2[C@H](O)c1cc(-c2cccnc2)nc2ccc(OC)cc12 | L-lactate dehydrogenase (Plasmodium falciparum (isolate CDC / Honduras)) | % | 3
CN1[C@@H]2CC[C@H]1c1cc(NC(=O)c3cc(-c4ccc(Cl)cc4)cs3)ccc12 | L-lactate dehydrogenase (Plasmodium falciparum (isolate CDC / Honduras)) | % | -2
CC[C@H]1CN2CC[C@H]1C[C@H]2[C@H](O)c1cc(/C=C/c2ccc(F)cc2)nc2ccc(OC)cc12 | L-lactate dehydrogenase (Plasmodium falciparum (isolate CDC / Honduras)) | % | -1

What value of inhibition has been reported for the following molecule? O=C(NC1CCC(CN2CCC(c3c[nH]c4ccccc34)CC2)CC1)c1ccc(-c2cc(C(F)(F)F)ccc2Cl)o1 (centres undefined)
3

---

method.description: polyglutamine-triggered caspase-3 activation inhibitors, cell-based (AID 1583)
condition.summary: polyglutamine-induced caspase-3 activation, cell assay; stronger effect = higher value; concentration not given here
quantity.kind: inhibition (%)
Field format: number, assumed %, no unit text.

Sample records with inhibition:
compound | units.text | numeric.readout
COc1cc([C@@H]2c3cc4c(cc3[C@H](O)[C@H]3COC(=O)[C@H]23)OCO4)cc(OC)c1OC | % | -31.7
c1ccc2c(c1)sc1ccccc12 | % | 11
CC(=O)OCC1=C(C(=O)O)N2C(=O)[C@@H](NC(=O)CCCC(N)C(=O)O)C2SC1 (stereo not given in full) | % | 10.9
CN(C)[C@@H]1C(=O)C(C(N)=O)=C(O)[C@@]2(O)C(=O)C3=C(O)c4c(O)ccc(Cl)c4[C@@](C)(O)[C@H]3C[C@@H]12 | % | 15.6
CC(=O)OC1CN2CCC1CC2 (stereo not given) | % | 0.37

What value of inhibition has been reported for the following compound? CN1C(=O)C(O)N=C(c2ccccc2)c2cc(Cl)ccc21 (stereo not given)
-6.64

---

method.description: CellTiter-Glo luminescent readout of SW480 viability loss, NPC library primary (AID 1117343)
condition.summary: CellTiter-Glo luminescence; at 20 µM (top of the series)
# note: exactly 30% is not below, so it is rule not met; use rule met for viability decrease (inhibition) strictly under it

State whether 30% exceeds viability decrease (inhibition) recorded for CCCCCCC(=O)CCCCCC/C=C/C[C@@H](O)[C@H](O)[C@@](N)(CO)C(=O)O .
rule not met

State whether 30% exceeds viability decrease (inhibition) recorded for O=C1NCN(c2ccccc2)C12CCN(CCCOc1ccc(F)cc1)CC2 .
rule not met

State whether 30% exceeds viability decrease (inhibition) recorded for O=C(O)C(Cl)Cl .
rule not met

---

method.description: inhibitors of mitochondrial cytochrome c release, biochemical, purified mitochondria (AID 1603);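 further: mouse liver mitochondria challenged with calcium chloride; signal normalized to the plate average as 100%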
condition.summary: stronger effect = lower value
In this section we review reported cytochrome c release ratio values for a set of compounds.

compound | result
C=C[C@H]1CN2CC[C@H]1C[C@H]2[C@H](O)c1ccnc2ccccc12 | 0.75
NCCc1ccc(O)cc1 | 0.71
C[C@H]1C(=O)O[C@@H]2CCN3CC=C(COC(=O)[C@](C)(O)[C@]1(C)O)[C@H]23 | 0.94

What value of cytochrome c release ratio has been reported for the following compound? N[C@@H](Cc1ccc(N(CCCl)CCCl)cc1)C(=O)O
0.77

What value of cytochrome c release ratio has been reported for the following compound? C=C(C)[C@@H]1[C@H]2OC(=O)[C@@H]1[C@]1(O)C[C@H]3O[C@]34C(=O)O[C@H]2[C@]14C
0.8

What value of cytochrome c release ratio has been reported for the following compound? O=c1c2ccccc2[se]n1-c1ccccc1
1.88

---

method.description: growth inhibition of RCMB18 medulloblastoma cells, cell-based, cisplatin and BGB IC40 combos (AID 1671462);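 further: cells exposed to compound for four days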
condition.summary: measured here: BGB IC40 combination, at 0.05 µM, stronger effect = higher value
Binary call on inhibition: true (1) from -10% upward, false (0) beneath that.

Worked set:
compound | class.assignment
O=P(O)(NCCCl)NCCCl | true (1)
O=c1[nH]c(=O)n(C2OC(CO)C(O)C2O)cc1F (centres undefined) | true (1)
NC(Cc1ccc(N(CCCl)CCCl)cc1)C(=O)O (centres undefined) | false (0)
COc1cc(C2c3cc4c(cc3C(O)C3COC(=O)C23)OCO4)cc(OC)c1OC (centres undefined) | true (1)
CCC1(c2ccccc2)C(=O)NC(=O)NC1=O | false (0)

Determine whether this compound has inhibition no lower than -10%: CN(C)NC(=O)CCC(=O)O
true (1)

Determine whether this compound has inhibition no lower than -10%: Cn1c(COP(=O)(NCCBr)NCCBr)cnc1[N+](=O)[O-]
false (0)

Determine whether this compound has inhibition no lower than -10%: O=C(O)CCCc1ccc(N(CCCl)CCCl)cc1
false (0)

Determine whether this compound has inhibition no lower than -10%: CC1(C)C(C(=O)Nc2ccc(S(=O)(=O)c3ccc(NC(=O)C4C(C)(C)C4(C)C)cc3)cc2)C1(C)C
true (1)

---

test.system: L-lactate dehydrogenase (Plasmodium falciparum (isolate CDC / Honduras))
method.description: PfLDH activity inhibition – cell lysate, 3D7 strain, counter-screen for P. falciparum growth inhibition project (AID 2304);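 further: 0% = vehicle and 100% = reference inhibitor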
condition.summary: P. falciparum 3D7 crude extract, LDH APAD/NBT absorbance; at 2 µM; stronger effect = higher value
quantity.kind: inhibition (%)
Field format: number, assumed %, no unit text.

Sample records with inhibition:
molecule | quantity.kind | numeric.readout
COCCNCc1cccc(-c2ccc(CN(C(=O)NC3CCCCC3)C3CCN(Cc4ccccc4)CC3)cc2)c1 | inhibition | 6
CCCCCc1cc(O)c2c(c1)OC(C)(C)CC2C1=CCN(Cc2cccnc2)CC1 (configuration not stated) | inhibition | -1
Oc1cccc(C2CCCN(Cc3cccc4cc[nH]c34)C2)c1 (configuration not stated) | inhibition | -2

What value of inhibition has been reported for the following molecule? CO[C@@H]1C[C@@H](C(=O)Nc2ccccc2)N(c2ccc(C#N)c3ccccc23)C1
6

What value of inhibition has been reported for the following molecule? CN1CC=C(c2c[nH]c3ccc(Oc4ccccc4)cc23)CC1
-7

What value of inhibition has been reported for the following molecule? c1ccc2c(NCCCCCCNc3c4ccccc4nc4ccccc34)c3ccccc3nc2c1
3

What value of inhibition has been reported for the following molecule? NC(=NCCCCCCN=C(N)/N=C(\N)c1ccc(Cl)cc1)/N=C(\N)c1ccc(Cl)cc1
-9

What value of inhibition has been reported for the following molecule? O=C(/C=C/c1cccc(Cl)c1)NC1CCC(CN2CCC(c3c[nH]c4ccccc34)CC2)CC1 (configuration not stated)
0

What value of inhibition has been reported for the following molecule? O=C(NC1CCN(CC2(c3ccc(Cl)cc3)CCC2)CC1)c1ccn[nH]1
-3

What value of inhibition has been reported for the following molecule? Cc1[nH]c2ccc(O)cc2c1C1CCN(CC2CCC(NC(=O)/C=C/c3c(Cl)cccc3Cl)CC2)CC1 (configuration not stated)
-3

What value of inhibition has been reported for the following molecule? Cc1csc(NC2=NCCN2)n1
0

What value of inhibition has been reported for the following molecule? COc1ccc(CCNCc2ccc3c(C)cc(N)nc3c2)cc1
0

What value of inhibition has been reported for the following molecule? CC(Cc1ccc(NC(=O)[C@@H](C)NCCc2cccc(Cl)c2)cc1)NCCc1cccc(Cl)c1 (some centres not stated)
-1

What value of inhibition has been reported for the following molecule? COc1ccc2[nH]cc(C3=CCN(C[C@H]4C[C@@H]4C(=O)c4ccccc4)CC3)c2n1
-8
